Field: GI50. Provide a value for each of the compounds that follow.
# Test system: MDA-MB-468 breast
# assay: NCI tumour cell line growth inhibition, 48 h

Past entries and their recorded results:
>  <compound>
CSc1ccc(/C(=N/N=C(N)N)c2ccccc2)cc1

>  <GI50>
451 nM

$$$$
>  <compound>
CN(Cc1ccc(C(F)(F)F)cc1)CC(O)C(=O)Nc1ccc(Cl)cc1 (configuration not stated)

>  <GI50>
1370 nM

$$$$
>  <compound>
CCn1c(-c2cc3c([nH]c4ccccc43)c(-c3cccc(O)c3)n2)n[nH]c1=S

>  <GI50>
3190 nM

$$$$
>  <compound>
COc1ccc(/C=C/C(=O)c2ccc(-n3cc(CN4CCN(c5cc6c(cc5F)c(=O)c(C(=O)O)cn6C5CC5)CC4)nn3)cc2)cc1OC

>  <GI50>
1960 nM

$$$$
>  <compound>
C1=C/COCc2cc(ccc2OCCN2CCCC2)Nc2nccc(n2)-c2ccc(o2)COC/1

>  <GI50>
1490 nM

$$$$

Could I get GI50 for every one of these entries?
1. COC(=O)C(CCC(=O)CCl)N1C(=O)c2ccccc2C1=O (configuration not stated)
2. CN1CCN(Cc2ccc(NC(=O)c3cncc(C#Cc4cnc(N)cc4C#N)c3)cc2C(F)(F)F)CC1

(A)
["2110 nM", "2010 nM"]

* * *

# Tested on: MDA-MB-468 breast
# assay: NCI tumour cell line growth inhibition, 48 h; in the data active = GI50 below about 0.43 µM; inactive = the rest
Allowed answers: active, inactive

(Q) Per the assay record, what outcome was assigned to `CCN1CCN(c2cc(C)nc(N(CCCNc3ccnc4cc(Cl)ccc34)Cc3ccc4c(c3)OCO4)n2)CC1` ?
(A) inactive

(Q) Which result was noted for this compound in the test: `NS(=O)(=O)c1ccc(N=Nc2c(O)[nH]c3ccc(C(=O)NCc4ccncc4)cc23)cc1`
(A) inactive

(Q) Would you mind telling me which call this test gave NCCCCC1NC(=O)C(CC(=O)O)NC(=O)CNC(=O)C(CCCN=C(N)N)NC(=O)C(N)CSSCC(C(=O)O)NC(=O)C(CC(=O)O)NC(=O)C2CCCN2C(=O)CNC1=O (stereo not drawn) ?
(A) inactive

(Q) // param item: `CC1=C2C(=CC(C)(C)[C@@H]2O)C(=O)[C@](C)(O)C12CC2` ; yields the recorded call
(A) active

* * *

# Test system: MDA-MB-468 breast
# assay: NCI tumour cell line growth inhibition, 48 h
Give TGI for every item shown.

Below: 2 compounds and their reported TGI.
>  <compound>
Cc1cc(Nc2nc(C(=O)Nc3ccccc3)nc3ccccc23)n[nH]1

>  <TGI>
> 25 µM

$$$$
>  <compound>
NCCCCC1NC(=O)C(CC(=O)O)NC(=O)CNC(=O)C(CCCN=C(N)N)NC(=O)C(N)CSSCC(C(=O)O)NC(=O)C(CC(=O)O)NC(=O)C2CCCN2C(=O)CNC1=O (stereo not drawn)

>  <TGI>
> 100 µM

$$$$

Let us move to another entry and its TGI.
(Q) Under MDA-MB-468 breast: report TGI of `COC(=O)C12CC(NC(=O)c3csc([C@@H](C[C@H](C(C)C)N(C)C(=O)[C@@H](NC(=O)[C@H]4CCCCN4C)C4CC4)OC(C)=O)n3)(C1)C2` .
(A) > 16.7 µM

* * *

# Tested on: MDA-MB-468 breast
# assay: NCI tumour cell line growth inhibition, 48 h; in the data active = GI50 below about 0.43 µM; inactive = the rest
The reply should be one of these categories: 1 (active), -1 (inactive)

Observe how each entry below is paired with its result.
>  <smiles.text>
Cc1cc(C)c2c(n1)sc1c(N)ncnc12

>  <label.class>
-1

$$$$
>  <smiles.text>
Cc1cc(Nc2nc(C(=O)Nc3ccccc3)nc3ccccc23)n[nH]1

>  <label.class>
-1

$$$$
>  <smiles.text>
CCCCCCCCOC(=O)c1c(C)[nH]c(/C=C2\N=C(c3ccc[nH]3)C=C2OC)c1C

>  <label.class>
1

$$$$

(Q) Fill in: this test's call for `COC(=O)C12CC(NC(=O)c3csc([C@@H](C[C@H](C(C)C)N(C)C(=O)[C@@H](NC(=O)[C@H]4CCCCN4C)C4CC4)OC(C)=O)n3)(C1)C2` is ___
(A) 1
